# Test method notes: GHS categories as the set defines them, by LD50: 1 up to 5, 2 up to 50, 3 up to 300, 4 up to 2000, 5 above 2000 mg/kg
# Stated conditions: rat; in vivo; po
# From the text: […]The data set underlying the modeling effort for this project was initially compiled by NICEATM and U.S. EPA’s CCTE. Briefly, LD50 data were collected from rat acute oral systemic toxicity tests, including limit tests, ranges/confidence intervals, and discrete LD50 values. The full data set included 21,200 LD50 entries for 15,688 substances. […]
Readout type: GHS category

• CON(C)C(=O)Nc1cc(C(C)(C)C)ns1 = 4
• CNC(=O)c1cnc2cccc(C)n2c1=O = 3
• CC(=O)OCC(C)=CCCC1(C)C2CC3C(C2)C31C (stereo unspecified) = 5
• COc1ccc(C[C@](C)(NC(N)=O)C(=O)O)cc1OC = 5
• OCC(O)CO = 5
• C[C@@H]1C[C@@H](C)CC(C)(C)C1 = 5
• CCO[Si](CN1CCOCC1)(OCC)OCC = 5
• CCCCCCCCCCCCCCOC(=O)Cl = 5
• CC1(C)[C@H](C(=O)O[C@H](C#N)c2cccc(Oc3ccccc3)c2)[C@@H]1/C=C\C(=O)OC(C(F)(F)F)C(F)(F)F = 5
• COC(=O)C(O)(c1cccs1)c1cccs1 = 5
• Cc1ccc(Nc2ccc(Nc3ccc(C)cc3S(=O)(=O)O)c3c2C(=O)c2c(O)ccc(O)c2C3=O)c(S(=O)(=O)O)c1 = 5
• CC1CC2(CC(C)OC2=O)C(=O)O1 (stereo unspecified) = 5
• Cc1cccc(Nc2ccncc2S(=O)(=O)NC(=O)NC(C)C)c1 = 5
• CCOc1ccc(Cc2cc([C@@H]3O[C@H](COC(C)=O)[C@@H](OC(C)=O)[C@H](OC(C)=O)[C@H]3OC(C)=O)ccc2Cl)cc1 = 5
• CC(C)N1CCN(C(=O)c2ccc(OC(=O)C3CCCc4ccccc43)cc2)CC1 (stereo unspecified) = 5
• CCC(=O)O[C@]1(C(=O)SCF)[C@H](C)C[C@H]2C3C[C@H](F)C4=CC(=O)C=C[C@]4(C)[C@@]3(F)[C@@H](O)C[C@@]21C (stereo partly specified) = 5
